# Method summary: Solubility of crystalline Form A of Compound (I) in pH 1.2 SGF, shake-flask (Test J)
# Format: physicochemical
# Condition context: simulated gastric fluid pH 1.2 (SGF), thermodynamic from solid, 37° C., 24 h agitation
Outcome measure: solubility at 24 h (µM)
Hi! Could you send only the number? It should be in µM, unit omitted.

[ask] Answer with the recorded solubility at 24 h for the compound listed here: COc1cc(F)c(O[C@H]2CC[C@@](C)(C(=O)O)CC2)cc1C(=O)N[C@@H]1[C@H]2CC[C@H](C2)[C@@H]1C(=O)NCC1(C)CCC1 [Form A of Compound (I)]
[reply] 0.4

###

# Method summary: Solubility (pH 7.4) (Test F)
# Type: physicochemical
# Condition context: pH 7.4, aqueous buffer
Outcome measure: solubility

[ask] Give the value of solubility reported for the following: COc1cc(F)c(O[C@H]2CC[C@@](C)(C(=O)O)CC2)cc1C(=O)N[C@@H]1[C@H]2CC[C@H](C2)[C@@H]1C(=O)NCC1(C)CCC1
[reply] > 500 µM

Entry source: patent US20260240798A1
